Subject of test: UniProt:P33261
Sequence (P33261 whole entry): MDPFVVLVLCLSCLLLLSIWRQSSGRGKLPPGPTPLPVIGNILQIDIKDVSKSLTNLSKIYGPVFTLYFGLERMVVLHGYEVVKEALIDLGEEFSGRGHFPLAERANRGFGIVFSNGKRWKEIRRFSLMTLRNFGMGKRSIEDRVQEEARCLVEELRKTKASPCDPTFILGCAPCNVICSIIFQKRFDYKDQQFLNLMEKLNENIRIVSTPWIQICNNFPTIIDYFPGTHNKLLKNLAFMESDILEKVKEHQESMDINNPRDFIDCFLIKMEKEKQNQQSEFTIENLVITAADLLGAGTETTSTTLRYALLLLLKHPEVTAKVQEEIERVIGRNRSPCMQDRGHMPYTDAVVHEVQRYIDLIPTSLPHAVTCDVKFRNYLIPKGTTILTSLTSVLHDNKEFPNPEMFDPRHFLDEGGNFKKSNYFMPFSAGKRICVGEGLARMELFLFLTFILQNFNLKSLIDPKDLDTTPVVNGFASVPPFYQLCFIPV
Test: Cytochrome panel assay with activity outcomes. Panel member name: p450-cyp2c19 Compounds with AC50 equal or less than 10 uM are considered active
Type: functional
Measurement parameters: read-out: AC50
Entries and their measured AC50 follow.

* CCN1CN=C(S)N(c2cc(C)ccc2C)C1 | 39.8 µM (inconclusive)
* c1ccc(-c2csc(Nc3nc(N4CCOCC4)nc(N4CCOCC4)n3)n2)cc1 | 5.62 µM (inconclusive)
* C=CCNC(=O)CC(=O)N/N=C/c1cccc(Br)c1 | 0.2 µM (inconclusive)
* COCC/N=C1/Sc2nc3c(C)cccc3cc2CN1Cc1ccco1 | 2.51 µM (inconclusive)
* CCn1c(SCC(=O)N2CCN(S(=O)(=O)c3ccccc3)CC2)nnc1-c1cccs1 | 22.4 µM (inconclusive)
* COC(=O)[C@@]1(Cc2ccccc2)[C@H]2c3cc(C(=O)N4CCCC4)n(CCN4CNCC4=O)c3C[C@H]2CN1C(=O)c1ccccc1 | 39.8 µM (inconclusive)
* O=C(CNC(=O)c1ccc([N+](=O)[O-])cc1)c1ccccc1 | 2.82 µM (inconclusive)
* O=C(COc1ccc([N+](=O)[O-])cc1)NCc1ccccc1 | 7.94 µM (inconclusive)
* COc1ccc2oc(-c3ccc(C)c(NC(=O)c4ccc(N5CCOCC5)c([N+](=O)[O-])c4)c3)nc2c1 | 5.62 µM (inconclusive)

The record that follows has no AC50 shown yet.
Using the record for `O=c1cnc2cncnc2n1Cc1ccc(F)cc1` , state its measured AC50. 39.8 µM (inconclusive)

###

Subject of test: Aminopeptidase N (Plasmodium falciparum FcB1/Columbia, UniProt O96935)
Sequence (O96935 whole entry): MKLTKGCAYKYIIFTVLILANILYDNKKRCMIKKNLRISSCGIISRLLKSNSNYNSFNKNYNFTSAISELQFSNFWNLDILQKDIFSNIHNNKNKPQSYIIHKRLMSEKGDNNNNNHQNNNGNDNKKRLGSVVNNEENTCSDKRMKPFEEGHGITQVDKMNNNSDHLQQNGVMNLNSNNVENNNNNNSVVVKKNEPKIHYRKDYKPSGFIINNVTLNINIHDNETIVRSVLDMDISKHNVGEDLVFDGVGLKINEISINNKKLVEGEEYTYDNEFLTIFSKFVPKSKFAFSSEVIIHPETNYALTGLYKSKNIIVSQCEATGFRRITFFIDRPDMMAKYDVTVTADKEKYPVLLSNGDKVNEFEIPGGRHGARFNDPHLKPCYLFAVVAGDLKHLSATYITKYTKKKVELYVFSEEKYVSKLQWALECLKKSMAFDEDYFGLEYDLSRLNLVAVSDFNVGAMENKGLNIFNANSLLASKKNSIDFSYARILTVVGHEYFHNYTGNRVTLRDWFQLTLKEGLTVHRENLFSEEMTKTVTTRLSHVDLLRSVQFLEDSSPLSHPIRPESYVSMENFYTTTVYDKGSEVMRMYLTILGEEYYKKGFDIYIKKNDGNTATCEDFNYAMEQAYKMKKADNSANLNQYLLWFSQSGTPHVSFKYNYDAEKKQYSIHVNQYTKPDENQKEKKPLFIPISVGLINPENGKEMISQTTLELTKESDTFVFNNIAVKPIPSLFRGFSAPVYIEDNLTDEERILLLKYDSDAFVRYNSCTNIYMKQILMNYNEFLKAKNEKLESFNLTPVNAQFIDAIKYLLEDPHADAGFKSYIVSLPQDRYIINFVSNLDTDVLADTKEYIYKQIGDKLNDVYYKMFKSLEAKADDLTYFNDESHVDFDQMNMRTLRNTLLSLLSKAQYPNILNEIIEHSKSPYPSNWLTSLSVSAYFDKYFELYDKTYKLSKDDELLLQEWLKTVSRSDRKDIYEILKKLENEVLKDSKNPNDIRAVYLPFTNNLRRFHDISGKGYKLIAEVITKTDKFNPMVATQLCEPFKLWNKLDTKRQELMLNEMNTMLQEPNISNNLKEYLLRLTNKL
Test: malaria alanyl aminopeptidase activity blockers – biochemical, fluorogenic H-Leu-NHMec substrate, 1536-well (AID 1445)
Parameters: species or system Plasmodium falciparum 3D7, 3D7
Calls of active or inactive are those of the source.
Assay metric: IC50

Solved entries:
• CC1CCCCC1NC(=O)CSc1nnc(-c2ccccc2)n1N (centres undefined) = 46.8 µM (active)
• COc1ccc(/C=C2\SC(NS(=O)(=O)c3cccs3)=NC2=O)cc1 = 41.1 µM (active)
• Cc1ccc(-n2cccc2/C=C2/C(=N)N3C(=NC2=O)SN=C3S(C)(=O)=O)cc1Cl = 15 µM (active)

Turning now to a further compound:
// Input: `O=C(O)c1cc(-c2ccc(/C=N/NC(=S)Nc3ccccc3)o2)ccc1Cl` . Output its IC50 only. 31.2 µM (active)

###

Test: fluconazole-exposed Candida albicans growth modulators – fluorescence, retest, confirmation (AID 2467)
Assay type: functional, cell-based
Active and inactive are the calls of the source.
# key: entry, value: EC50

* NC(=O)c1c(NC(=O)c2ccco2)sc2c1CCC2 | 0.654 µM (inconclusive)
* O=C(c1ccco1)N1CCN(c2ncnc3c(-c4ccccc4)nsc23)CC1 | 9.83 µM (active)
* O=C(c1cc2c(s1)CCCCC2)N1CCN(c2ncccn2)CC1 | 1.2 µM (active)

Query compound follows.
Supply measured EC50 of CCOc1ccccc1C1C2=C(O)OCC2=Nc2cc3c(cc21)OCO3 (centres undefined) in your reply. > 38 µM (not active)

###

Collected EC50 values appear next to each entry.
Subject of test: SWI/SNF-related matrix-associated actin-dependent regulator of chromatin subfamily A member 2 (Homo sapiens, UniProt P51531)
Sequence (P51531 whole entry): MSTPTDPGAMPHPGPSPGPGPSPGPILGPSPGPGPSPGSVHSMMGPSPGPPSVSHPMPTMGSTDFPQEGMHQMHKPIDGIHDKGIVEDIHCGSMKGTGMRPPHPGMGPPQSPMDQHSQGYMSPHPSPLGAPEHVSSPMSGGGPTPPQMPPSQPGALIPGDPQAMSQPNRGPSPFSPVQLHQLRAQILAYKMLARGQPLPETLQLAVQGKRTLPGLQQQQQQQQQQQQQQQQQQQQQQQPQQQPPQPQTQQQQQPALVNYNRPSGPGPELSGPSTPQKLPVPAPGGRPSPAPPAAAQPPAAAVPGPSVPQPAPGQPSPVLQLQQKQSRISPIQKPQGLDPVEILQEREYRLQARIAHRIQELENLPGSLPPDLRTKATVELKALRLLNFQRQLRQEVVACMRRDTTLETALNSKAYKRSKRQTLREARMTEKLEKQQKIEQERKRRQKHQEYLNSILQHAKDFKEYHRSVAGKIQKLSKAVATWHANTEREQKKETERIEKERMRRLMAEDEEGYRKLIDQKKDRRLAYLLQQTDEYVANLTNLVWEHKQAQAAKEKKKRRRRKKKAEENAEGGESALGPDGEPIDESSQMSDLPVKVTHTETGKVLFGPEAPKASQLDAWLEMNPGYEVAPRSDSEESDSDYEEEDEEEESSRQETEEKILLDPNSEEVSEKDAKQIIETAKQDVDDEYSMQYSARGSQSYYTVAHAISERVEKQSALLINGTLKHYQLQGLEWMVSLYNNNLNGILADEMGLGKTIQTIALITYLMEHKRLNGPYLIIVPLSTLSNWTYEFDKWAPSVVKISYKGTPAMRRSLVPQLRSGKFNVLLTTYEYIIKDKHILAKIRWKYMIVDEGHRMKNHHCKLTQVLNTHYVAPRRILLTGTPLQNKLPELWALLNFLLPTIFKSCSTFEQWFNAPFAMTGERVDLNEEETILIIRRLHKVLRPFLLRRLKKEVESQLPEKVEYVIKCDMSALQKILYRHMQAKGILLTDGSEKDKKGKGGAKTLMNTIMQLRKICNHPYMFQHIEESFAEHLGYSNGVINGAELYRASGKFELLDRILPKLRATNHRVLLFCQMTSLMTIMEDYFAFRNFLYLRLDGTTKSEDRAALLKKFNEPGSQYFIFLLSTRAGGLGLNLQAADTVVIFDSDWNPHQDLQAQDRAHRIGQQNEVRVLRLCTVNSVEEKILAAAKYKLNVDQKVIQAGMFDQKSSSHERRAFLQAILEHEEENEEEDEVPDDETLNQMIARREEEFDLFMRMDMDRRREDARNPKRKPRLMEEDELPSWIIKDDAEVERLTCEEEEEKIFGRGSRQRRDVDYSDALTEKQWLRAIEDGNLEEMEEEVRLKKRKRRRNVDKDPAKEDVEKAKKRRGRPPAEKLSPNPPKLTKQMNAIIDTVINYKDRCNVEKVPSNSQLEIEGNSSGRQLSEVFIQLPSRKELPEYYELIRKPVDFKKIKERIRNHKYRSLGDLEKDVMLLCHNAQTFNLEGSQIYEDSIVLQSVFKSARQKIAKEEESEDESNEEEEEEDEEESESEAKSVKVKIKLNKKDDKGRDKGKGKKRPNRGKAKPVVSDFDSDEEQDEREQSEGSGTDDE
Test: Luminescence-based cell-based high throughput dose response assay to identify activators of the function of SWI/SNF related, matrix associated, actin dependent regulator of chromatin, subfamily a, member 2 (SMARCA2, BRM).
Type: functional
Activity calls are given as the source filed them.

• CCN(CC)CCNc1nc2cc(OC)c(OC)cc2c2nc(-c3ccccc3)nn12 = > 91.2 µM (inactive)
• CC(C)=CCNc1ncnc2c1c(C#N)cn2C1OC(CO)C(O)C1O (centres undefined) = > 91.1 µM (inactive)

Respond only with EC50 recorded for `NC(=O)c1ccsc1NC(=O)c1ccc([N+](=O)[O-])o1` > 91.1 µM (inactive)

# return recorded EC50 for input `COc1cc2c[n+](C)c3c4ccccc4ccc3c2cc1OC` > 91.1 µM (inactive)

###

Each item that follows carries a reported EC50.
Subject of test: UniProtKB Q8TDD5
Sequence (Q8TDD5 whole entry): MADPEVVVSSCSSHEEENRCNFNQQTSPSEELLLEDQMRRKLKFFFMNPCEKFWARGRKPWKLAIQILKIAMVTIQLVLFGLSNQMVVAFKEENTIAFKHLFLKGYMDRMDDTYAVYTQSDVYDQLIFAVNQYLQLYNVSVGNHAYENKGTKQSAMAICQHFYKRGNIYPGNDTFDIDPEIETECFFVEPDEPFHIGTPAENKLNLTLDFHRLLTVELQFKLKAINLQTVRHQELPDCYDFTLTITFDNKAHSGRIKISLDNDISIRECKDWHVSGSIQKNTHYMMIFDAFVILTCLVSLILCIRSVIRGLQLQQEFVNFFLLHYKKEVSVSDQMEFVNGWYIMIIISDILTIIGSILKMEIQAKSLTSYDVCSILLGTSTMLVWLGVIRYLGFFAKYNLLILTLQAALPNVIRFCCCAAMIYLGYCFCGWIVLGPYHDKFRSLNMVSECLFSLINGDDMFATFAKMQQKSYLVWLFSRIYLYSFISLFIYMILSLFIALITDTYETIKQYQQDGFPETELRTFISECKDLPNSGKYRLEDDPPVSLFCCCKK
Test: Dose response cell-based high-throughput screening assay for agonists of the transient receptor potential channel ML3 (TRPML3). [Related pubchem assays: 1526, 1424, 1448 ]
Type: functional
Active and inactive are the calls of the source.

- CCOc1ccc(NC(=O)c2ccccc2NS(=O)(=O)c2ccc(F)cc2)c([N+](=O)[O-])c1: 5.29 µM (active)
- Cc1cccc(CC2CC(=O)N(C3CCCCC3)C2=O)c1 (centres undefined): 3.41 µM (active)

Supply reported EC50 belonging to this compound: `COc1ccc(C(C)(C)C)cc1NC(=O)c1cc(S(=O)(=O)N(C)C)ccc1N1CCCC1` > 29.9 µM (not active)

Give the value of EC50 reported for the following: CC1CCCC(C)N1C(=O)CN1CCN(c2nc(-c3ccc(F)cc3)cs2)CC1 (centres undefined) 27.4 µM (not active)

###

Subject of test: DNA dC->dU-editing enzyme APOBEC-3A (Homo sapiens)
Sequence (P31941 whole entry): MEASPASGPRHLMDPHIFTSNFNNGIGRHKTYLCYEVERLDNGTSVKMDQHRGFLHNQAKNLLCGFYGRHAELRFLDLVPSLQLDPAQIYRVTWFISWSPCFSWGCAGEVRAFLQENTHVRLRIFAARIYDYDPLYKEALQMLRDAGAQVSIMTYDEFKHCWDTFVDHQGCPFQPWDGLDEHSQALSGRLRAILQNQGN
Test: Dose Response confirmation of small molecule APOBEC3A DNA Deaminase Inhibitors via a fluorescence-based single-stranded DNA deaminase assay. [Related pubchem assays (depositor defined):AID493011, AID493024]
Assay type: functional
The source made the active and inactive calls.
Assay metric: IC50

Worked cases, answers included:
- COCCN1C(NCCCOC(C)C)=N[C@@H](c2ccccc2)C(C(=O)OC)=C1C: 5.67 µM (active)
- CCN1CCN(S(=O)(=O)c2ccc(Cl)c(C(=O)Nc3cc(Cl)ccc3N3CCOCC3)c2)CC1: 5.15 µM (active)
- COCCN(C(=O)COC(=O)CNC(=O)c1cccs1)c1c(N)n(Cc2ccccc2)c(=O)[nH]c1=O: 8.35 µM (active)

We next turn to a different compound, shown below.
Identify IC50 associated with the compound COc1ccc(/C=N/NC(=O)C(C)Sc2ccccn2)cc1[N+](=O)[O-] (centres undefined) 6.02 µM (active)

###

Test: Luminescence Cell-Based Dose Response HTS to Identify Activators of Luciferase Translation or Activity in H4 […] Cells. [Related pubchem assays: 1829 (Project Summary), 1814 (Primary HTS)]
Assay type: functional
Calls of active or inactive are those of the source.
Assay metric: EC50

Examples from the recorded data:
* Nc1ccccc1C(=O)N/N=C1\C2CN3CCN(C2)CC1(c1ccccc1)C3 | > 120 µM (not active)
* Cn1ccc(C(=O)Oc2ccc(C(=O)Nc3ccc(F)cc3F)cc2)n1 | 16.8 µM (active)

Report EC50, nothing else, for this compound: `Cc1cc(CNC(=O)c2cccc(OC3CCN(S(=O)(=O)N(C)C)CC3)c2)on1` 10.8 µM (active)

###

Subject of test: RNA-binding protein pos-1 (Caenorhabditis elegans, UniProt G5EF15)
Sequence (G5EF15 whole entry, the tested form may be a part): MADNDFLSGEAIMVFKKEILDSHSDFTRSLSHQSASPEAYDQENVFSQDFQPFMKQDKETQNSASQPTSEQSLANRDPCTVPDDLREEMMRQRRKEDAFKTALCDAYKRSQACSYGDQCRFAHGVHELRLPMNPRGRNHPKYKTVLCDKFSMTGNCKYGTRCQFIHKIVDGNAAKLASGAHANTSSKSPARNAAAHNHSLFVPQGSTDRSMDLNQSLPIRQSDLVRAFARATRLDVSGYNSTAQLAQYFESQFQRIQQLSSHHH
Test: disruptors of C. elegans POS-1 RNA interaction – biochemical, fluorescence polarization, dose response (AID 1964);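 further: purified POS-1 fused to maltose binding protein made in E. coli; potency of compounds blocking POS-1 binding to fluorescent RNA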
The source made the active and inactive calls.
EC50 reference

The examples below pair each entry with its known result.
* O=C(O)CSc1cc(NS(=O)(=O)c2ccc(Br)cc2)c2ccccc2c1O | 20.7 µM (active)
* N=c1c(S(=O)(=O)c2ccc(Br)cc2)cc2c(=O)n3ccccc3nc2n1C1CCCCC1 | 9.42 µM (inconclusive)
* COc1ccc(/C=N/NC(=O)c2ccc(N(C)S(=O)(=O)c3ccccc3)cc2)cc1 | > 300 µM (not active)
* O=C(O)C1OC(Oc2cc3oc(-c4ccccc4)cc(=O)c3c(O)c2O)C(O)C(O)C1O (stereo not given) | 27.2 µM (active)

Note down EC50 recorded for `CCOc1cc(C(c2c(C)[nH][nH]c2=O)c2c(C)[nH][nH]c2=O)ccc1O` 57.9 µM (active)

Report EC50 for CC1(OC(=O)c2cccs2)C(=O)C=C2C=C3CCCN3C=C2C1=O (stereo not given) > 300 µM (not active)

Give the reported EC50 for this molecule. `Cc1n[nH]c(C)c1N1C(=O)c2cccc3c(N4CCCCCC4)ccc(c23)C1=O` 6.94 µM (inconclusive)

Specify measured EC50 for `O=C1c2ccccc2C(=O)C1c1ccc2ccccc2n1` . > 300 µM (not active)

Tell me measured EC50 for `COc1ccc(-n2cc(CNCc3cnc4ccccn34)c(-c3cccc(F)c3)n2)cc1` please. > 300 µM (not active)

Tell me EC50 reported for CC1(C)CC(=O)C2=C(C1)OC(N)=C(C#N)C2c1cccc(OC(=O)c2ccco2)c1 (stereo not given) > 300 µM (not active)

###

Form field: EC50 (one value per entry).
Subject of test: UniProtKB Q9XUB2
Sequence (Q9XUB2 whole entry): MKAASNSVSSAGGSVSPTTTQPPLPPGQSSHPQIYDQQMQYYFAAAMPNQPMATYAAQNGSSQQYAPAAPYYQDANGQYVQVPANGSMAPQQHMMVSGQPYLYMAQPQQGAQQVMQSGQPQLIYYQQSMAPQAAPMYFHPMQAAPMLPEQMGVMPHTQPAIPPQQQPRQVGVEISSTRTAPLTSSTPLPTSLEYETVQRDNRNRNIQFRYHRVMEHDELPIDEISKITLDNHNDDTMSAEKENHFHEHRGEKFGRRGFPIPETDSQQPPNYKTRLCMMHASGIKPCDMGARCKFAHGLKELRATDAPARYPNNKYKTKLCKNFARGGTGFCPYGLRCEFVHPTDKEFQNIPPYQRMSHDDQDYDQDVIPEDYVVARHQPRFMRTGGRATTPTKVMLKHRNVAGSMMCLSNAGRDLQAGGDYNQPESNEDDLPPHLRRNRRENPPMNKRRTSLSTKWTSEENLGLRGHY
Test: potency of MEX-5 RNA-binding blockers – biochemical, C. elegans, fluorescence polarization, dose response (AID 1960)
Calls of active or inactive are those of the source.

Known EC50 results, listed for orientation:
- CCOc1cc(C(c2c(C)[nH][nH]c2=O)c2c(C)[nH][nH]c2=O)ccc1O: 107 µM (active)
- CC1(OC(=O)c2cccs2)C(=O)C=C2C=C3CCCN3C=C2C1=O (stereo not given): 35.4 µM (active)
- Cc1ccc(NC(=O)CSc2nnc(N)s2)cc1S(=O)(=O)N1CCOCC1: > 300 µM (not active)
- Cc1c(N)cc(N)cc1C(=O)O: 27.7 µM (active)
- N=c1c(S(=O)(=O)c2ccc(Br)cc2)cc2c(=O)n3ccccc3nc2n1C1CCCCC1: 8.8 µM (active)

Let me know recorded EC50 for CC1(C)CC(=O)C2=C(C1)OC(N)=C(C#N)C2c1cccc(OC(=O)c2ccco2)c1 (stereo not given) , thanks. > 300 µM (not active)

Give the value of EC50 reported for the following: `COc1ccc(-n2cc(CNCc3cnc4ccccn34)c(-c3cccc(F)c3)n2)cc1` > 300 µM (inconclusive)

Provide measured EC50 value, entry: `COc1cc(C(c2c(C)[nH][nH]c2=O)c2c(C)[nH][nH]c2=O)cc([N+](=O)[O-])c1O` 4.74 µM (active)

Provide measured EC50 value, entry: `COc1ccc(/C=N/NC(=O)c2ccc(N(C)S(=O)(=O)c3ccccc3)cc2)cc1` > 300 µM (not active)

Complete the entry with EC50 for `CCOC(=O)C1CCN(C(=O)CCC(=O)NNc2nc3ccccc3c3nc(C)nn23)CC1` 1.41 µM (active)
